The reported measurements were obtained from ChEMBL document CHEMBL2074439.

Target: OATP8 (OATP1B3, SLCO1B3) (Homo sapiens)
Sequence (Q9NPD5 whole entry): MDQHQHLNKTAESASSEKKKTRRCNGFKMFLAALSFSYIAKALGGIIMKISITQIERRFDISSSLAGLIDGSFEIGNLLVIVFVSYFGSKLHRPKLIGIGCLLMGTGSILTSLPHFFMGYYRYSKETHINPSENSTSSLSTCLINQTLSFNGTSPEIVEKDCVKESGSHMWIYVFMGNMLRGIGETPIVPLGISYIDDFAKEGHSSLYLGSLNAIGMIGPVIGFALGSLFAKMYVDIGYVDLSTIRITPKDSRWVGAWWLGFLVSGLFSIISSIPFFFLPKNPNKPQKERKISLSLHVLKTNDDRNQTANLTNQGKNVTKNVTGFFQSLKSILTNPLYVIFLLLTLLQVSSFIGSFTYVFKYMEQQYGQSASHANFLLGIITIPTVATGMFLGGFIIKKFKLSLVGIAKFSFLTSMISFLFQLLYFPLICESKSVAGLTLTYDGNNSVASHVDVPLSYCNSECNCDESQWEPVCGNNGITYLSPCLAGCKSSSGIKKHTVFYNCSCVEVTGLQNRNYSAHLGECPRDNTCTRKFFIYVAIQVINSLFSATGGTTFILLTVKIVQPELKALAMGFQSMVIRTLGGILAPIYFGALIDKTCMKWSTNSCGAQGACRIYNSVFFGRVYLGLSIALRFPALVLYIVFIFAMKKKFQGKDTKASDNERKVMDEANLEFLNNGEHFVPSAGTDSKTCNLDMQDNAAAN
Test: TP_TRANSPORTER: uptake in OATP8-expressing HEK293 cells
Type: functional, cell-based
Settings: HEK293 cells that express OATP8 (OATP1B3)
Assignment: determine reported Km for the given compounds.
Give bare numbers, in µM.

Q: Km for C[C@]12CC[C@@H]3c4ccc(O)cc4CC[C@H]3[C@@H]1CC[C@@H]2O[C@@H]1O[C@H](C(=O)O)[C@@H](O)[C@H](O)[C@H]1O [ESTRADIOL 17B GLUCURONIDE] ?
A: 5.4

// switching to the query compound
Q: Fill in: Km of O=C1OC(c2ccc(O)c(S(=O)(=O)O)c2)(c2ccc(O)c(S(=O)(=O)O)c2)c2c(Br)c(Br)c(Br)c(Br)c21 [SULFOBROMOPHTHALEIN SODIUM] is ___
A: 3.3
